tested on: MS2 coat protein; assay: apparent KD of MS2 coat protein; higher = weaker reporter binding; conditions: Eterna round: R107; input ligand: theophylline 2 mM
Classification field: enter rule met for apparent KD of MS2 coat protein values not below 90 nM, rule not met for values below it.

{"columns": ["sequence input", "test target", "class name"],
 "data": [
  ["GUUGAGACCUCGGCCGCCACUCGCCAUGAGGAUCUCCCAUGUAACAUGAGGAUCACCCAUGUACUGAGGACCGGGAGGUCCUAGU [Same State Tryptophan B GF 15]", "MS2 coat protein", "rule not met"],
  ["UAGACGGCCGGAAGGAGCGGUACAUGAGGAUCACCCAUGUACUUCUGGGCAUCCGUAGUGUGCCAGGUAGGUCGCCGGUUGCGGG [XArg-B20]", "MS2 coat protein", "rule not met"],
  ["UGACAGAUAACCGCUGGUGCUCUUGAGUUGCGAGGACCGGUACGGCCGCCACUCGACAACAUGAGGAUCACCCAUGUUGCGGGUC [Soleeror]", "MS2 coat protein", "rule met"],
  ["UUCGUUUGCGGAAGGAGCGACGGACAUCGGUGAACAACGCACAUGAGGAUCACCCAUGUACGUCAGGUAGGUCGCCGCUAAGAGU [XArg-B3]", "MS2 coat protein", "rule met"],
  ["ACGUUUUAGUCGGCCGCCACUGUUUUCAUGUUCAACAUGAGGAUCACCCAUGUACCUUUUUUUAUCAGGACCGGGACGUAAUAGA [JR_SSTryptoB_Sub004]", "MS2 coat protein", "rule not met"],
  ["ACGUAAUGCGGAAGGAGCGUCAUUUUAAAACAUGAGGAUCACCCAUGUAAUAUUUUUGUGUGACAGGUAGGUCGCCGAAGUACGA [#07 Same State - Arginine B]", "MS2 coat protein", "rule not met"],
  ["AAAUAAAUAACUGAUACCAGUGGACUGACAUGAGGAUCACCCAUGUUGGGUUUUGUUGUCCACCCUUGGCAGCAGGGAUAUAAAA [#24 Exclusion-TheophyllineB]", "MS2 coat protein", "rule not met"],
  ["UUUUUUAUUGGGUAUAGAAUAUUAACUGAAGGAGCGUGGUAUUACACAGGUAGGUCGCAGUUUUUACAUGAGGAUCACCCAUGUU [JR_SSArginiA_Sub010]", "MS2 coat protein", "rule not met"],
  ["CUCCCGUGGUCGGCCGCCACUGGAGGCCUCGCGCGACAUGAGGAUCACCCAUGUUGGCCCGGCUUCAGGACCGGGAUCGCGUGAG [#1 Same State - Tryptophan B Attempt #8 (HarryS)]", "MS2 coat protein", "rule not met"]
]}

###

Recorded apparent KD of K4 kissing-loop reporter, one value per entry.
test system: K4 kissing-loop RNA reporter; assay: apparent KD of K4 kissing-loop reporter; higher = weaker reporter binding; settings: Eterna round: R107; input ligand: FMN 200 uM
measurement name: apparent KD of K4 kissing-loop reporter (nM)

{"columns": ["sequence input", "measurement name", "reported value"],
 "data": [
  ["GGAGUCCCGUUAGAUUGUGUAGAUACAAGACGAGGACCGGUACGGCCGCCACUCGCCAUCGUCCAGUGAUGUUGGGCGUCACGGG [theeternabot_sameState_KL_Trp_A_30]", "apparent KD of K4 kissing-loop reporter", 262],
  ["GUUACGCAUGGAAGGAGCGCACUCCGAUUGGACGACACAGUGAUGUUGUGGUUCGUUCGAAUGCAGGUAGGUCGCCAUGUGUAAC [Ex Arginine B K4 19]", "apparent KD of K4 kissing-loop reporter", 159],
  ["CUUAAGGAGUGUCGUGCCGGACACUGGGAAGGAGCGCAAUUCUUUGCAGGUAGGUCGCCCAGUGAUGUUGGGUCUCGCUGUCGAA [KL-XArg-A20]", "apparent KD of K4 kissing-loop reporter", 139],
  ["UCGGACGCGCACCUAGGCCAAUCCACUGCGAAGGAUAUGCGCGCCAGCAGAAGGUCGUUUUAUGAGUGAUGUUUAGAAACAGCGU [theeternabot_exclusion_KL_FMN_A_25]", "apparent KD of K4 kissing-loop reporter", 428],
  ["AAUUUAUUAACUGAUACCAGACUUAAUAAAUUGUAAAUUACUAGUGAUGUUAGUGAAUUUGUCCCUUGGCAGCAGUAUUUAUUAA [JR_ExcTheophyB_Sub009]", "apparent KD of K4 kissing-loop reporter", 123],
  ["AGGUGAGAGUGAAGGAGCGAUCGCGCCAGUGAUGUUGGUGAGCAUGACGAAAGUCAUGCCGAUCAGGUAGGUCGCACUCUUACUC [Omei KL Arginine B SS B v3]", "apparent KD of K4 kissing-loop reporter", 700],
  ["CAAAUGUUGUCAGGAUAUGAGCGCAGUGAUGUUGCGGUUGUAUUUAUGACUGGAGCAGCGUAAGCCUCAGAAGGGACAAGUUGCC [Qubioran]", "apparent KD of K4 kissing-loop reporter", 167],
  ["AGACUACUGAUAGGAUAUAACAUACUACCUCGUAUACCAAAGGUAUACGAGGCCCUUCUAGUGAUGUUAGAAGGGUCGGUAGUCA [Omei KL FMN B Exc B v5]", "apparent KD of K4 kissing-loop reporter", 93.5],
  ["GGAGUUACCUGGGAUACCAGUCGGAGUCCCAGAGCACAGAGUGAUGUUCUGGGAUGUUUCGGCCCUUGGCAGCUCUGGGACUCCC [#2 Exclusion - Theophylline B Attempt #13 (HarryS)]", "apparent KD of K4 kissing-loop reporter", 482],
  ["AAUCAAUACAGAAGGAGCGUGACAGUUGCGAGUGUAAUUUUAGCUAGUGAUGUUAGCAUUUCACAGGUAGGUCGCUGUACAUUUA [#05 K4 Arginine B Same State]", "apparent KD of K4 kissing-loop reporter", 115],
  ["UGUCAUUGGUCGGCCGCCACUAGAAGGUCAAAGACCAUAGAGUGAUGUUCUAAGACGAAAGUCACUAGGACCGGGACCGAUGACU [TrypBS 1 #SwitchBubble #K4Middle]", "apparent KD of K4 kissing-loop reporter", 744]
]}

###

system: K4 kissing-loop RNA reporter; assay: apparent KD of K4 kissing-loop reporter; higher = weaker reporter binding; conditions: Eterna round: R107; input ligand: none;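 note: bound reporter read as fluorescence of individual clusters on recovered sequencing chips by microscopy, with normalized cluster intensities fitted with a binding model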
measurement name: apparent KD of K4 kissing-loop reporter (nM)

{"columns": ["sequence input", "reported value"],
 "data": [
  ["AGAACUGUCUGAGAUACCAGCUAAGGAGUGAUGUUCCUAGGUCCACGAAAGUGGACCCAUAGCCCUUGGCAGCUCAGACAGUUCA [#23 K4 Theophylline B Same State]", 1370],
  ["UGUCAUGGAAACAUGAACGUUGAAAUAUGACGAGGACCGGUACGGCCGCCACUCGAGUAAUGGUCAGUGAUGUUGACUGGAUUAA [KL-SSTryp-A form1 sub5 #split stat1]", 81.9],
  ["UUUUUUAAGAUAUUGACCAACCCGAAGCUACGAGGACCGGUACGGCCGCCACUCGCCAGUGAUGUUGGCGACUGGUGAAACCAUG [KL-XTryp-A24]", 106],
  ["GCGCGGCUCAGUGAUGUUGAGCCUCGGAGACGAGGACCGGUACGGCCGCCACUCGUCCGCGCAGCUGAGGCAAAAGCCUCGGCAA [Omei KL Tryp A SS B v3]", 189],
  ["AAUCUCGUCCUGGAUACCAGUCGCACGGUUUGUCAUGUCAGCCAGUGAUGUUGCCUGCAUGACCCUUGGCAGCCAUUCUAUGAAU [theeternabot_exclusion_KL_Theo_B_45]", 311],
  ["AGGAUGUAGUGAUGUUAUAUAAGAAGUAAACGAGGACCGGUACGGCCGCCACUCGAAGCGGCUACUAGCGCGCGCGCGCGCGCGC [ExTryptoA.Ca]", 263]
]}

###

tested on: MS2 coat protein; test: apparent KD of MS2 coat protein, switch OFF state (with FMN for OFF switches, without FMN for ON switches); designed switch direction (-1 OFF switch, 1 ON switch): -1; higher = weaker reporter binding; conditions: FMN input: 0 or 200 uM; Eterna round: R93 (includes R88 designs)
Recorded apparent KD of MS2 coat protein, one value per entry.
measurement name: apparent KD of MS2 coat protein (nM)

{"columns": ["sequence input", "display unit", "reported value"],
 "data": [
  ["AAAAAACAUGAGGAUCACCCAUGUGAGGAUAUGCUAUGGAAAAUAAAAAUAAAACAUAGCAGAAGGCACAAUGU [Denovo 5]", "nM", 85.2],
  ["AAAAAGUGAGGAUAUUCGGAUAGGAAAACGAAAACCUAUCCGAAGAAGGCACAUGAGGAUCACCCAUGUGAAAG [Mat - Exaclusion 4 - Eli mod - D42]", "nM", 29.4],
  ["AAAUGCUGAGGAUAUACAUGAGGAUCACCCAUGUAAAAUAAAUAAAGGGUGUAAACGUGUAGAAGGCAGCAUAA [Exclusion 3.14e (FMN+ favored )]", "nM", 32.6],
  ["AACAGGUCAGGAUAUGUGGAAAAAAUAAAAAAAAUAAAAACACAGAAGGGACAUGAGGAUCACCCAUGUAUAUA [May 21]", "nM", 53.4],
  ["AAAAAGAUAGGAUAUACGUACAUGUCAAAAGACGUGAAGGGACAUGAGGAUCACCCAUGUAGAAGGGUUAAAAA [JL Wide Open 41]", "nM", 45.3],
  ["AAAAGCAAAGGAUAUACAUGAGGAUCACCCAUGUAAAAAAGAAAAGAGUAUAUGGCAUGUAGAAGGUUGCGUGG [Rabisoxe]", "nM", 54.9],
  ["AAAAACCGAGGAUAUACAUGAGGAUCACCCAUGUGAAAAAAAAAAAAGAGGAAAAGAUGUAGAAGGCGGAAAAA [65%, Moding Exclusion3-cac2, 17]", "nM", 44.1],
  ["AAAAAACAUGAGGAUCACCCAUGUGAGGAUAUGCAAAAGAAAAGAAAAGAAAGAAGAAGCAGAAGGUACAAGAA [Shepseskare Isi]", "nM", 27.7],
  ["AUAAAACAUGAGGAUCACCCAUGUGAGGAUAUCUGAAAAAAAAAAAGAAAAAAAAAAAAGAGAAGGCACAAUAA [Amethyst 44]", "nM", 79.4],
  ["AGUCAUACAGGAUAUACAUGAGGAUCACCCAUGUUUAUCCUAAAAGGGUGAUCCUCAUGUAGAAGGGUAUGACA [EX3 209: Super Stable 9]", "nM", 14.5],
  ["AAGAAUGGAGGAUAUACAAAAUAAAAGAAAAGAAAGAAAGAACAUGAGGAUCACCCAUGUAGAAGGCCAAAGAA [Khasekhemre Neferhotep I]", "nM", 24.7],
  ["UAUAACCAAGGAUAUACUAACGAAACUAAUGCAUAUAUAUAACAUGAGGAUCACCCAUGUAGAAGGUGGAGAAU [JR_Exc002_Sub012]", "nM", 50.2],
  ["GAAAAGUCAGGAUAUACAGAAAAAAAAACGAAAAAAAAUCUGUAGAAGGGACAUGAGGAUCACCCAUGUUAAAG [Mat - Exclusion 4 - Mayanna - D126]", "nM", 23.6],
  ["AAAAAGACAGGAUAUACGUGAAAAAUAAAAAUGUAAAAAAAACAUGAGGAUCACCCAUGUAGAAGGGUCAAAAA [Ecx-I 62% 3]", "nM", 61.8],
  ["AAAAAUGGAGGAUAUACAUGAGGAUCACCCAUGUGUAUAAAAAAAUACACAAAAGAAAGUAGAAGGCCAUAAAA [Ex 3 Ice]", "nM", 94.3],
  ["CCUCGACAUGAGGAUCACCCAUGUUAGGAUAUAUACAAACCCGAAAACCAAGGGCAAAAUAGAAGGAACGUGCA [Masoedma]", "nM", 19.2],
  ["AUGGUACAUGAGGAUCACCCAUGUCAGGAUAUCGGCUAAAACGUAAAAAAAAUAAAAGCGAGAAGGGACUGCUC [EX1 Malc#18 Mod 8 - Jieux - Exclusion 1]", "nM", 28.3],
  ["CUCAUGUCAGGAUAUGUAGCAUGAUACGAAAGUAUCAUGCUACAGAAGGGACAUGAGGAUCACCCAUGUCAAAA [Ex4: 943]", "nM", 17.5],
  ["UACGUAUGAGGAUAUACAAACAGAAAAAUCAGACAUAACAGACAUGAGGAUCACCCAUGUAGAAGGCAUAUACA [JR_Exc002_Sub903]", "nM", 15.3],
  ["CAGGUAUGAGGAUAUACAUAGAUACAGACACAUGUUCAAGUACAUGAGGAUCACCCAUGUAGAAGGCAUAUAUG [Mat - Same state - Mayanna Mod - D106]", "nM", 35.1],
  ["AAAAAGGUAGGAUAUACGAAAAAAAAAGGUGAAAAAAAAAAACAUGAGGAUCACCCAUGUAGAAGGACCAAAAA [Ex 2 sub 1 70% 2]", "nM", 76.7],
  ["AACAUGUCAGGAUAUAAAAGAAAAGAAAAGAAAGAAAAGAAUUAGAAGGGACAUGAGGAUCACCCAUGUAAGAA [EteRNA is fun!]", "nM", 28.9],
  ["AAAAAUGGAGGAUAUACGUACAUGUCAAAAGACGUGAAGGGACAUGAGGAUCACCCAUGUAGAAGGCUAAAAAA [JL Stem Breaker 7]", "nM", 29.5],
  ["AGUUGGCGAGGAUAUACAUGAGGAUCACCCAUGUGGAAGAAAAAAGUGAGAAAGAAAAGUAGAAGGCGCUGACA [Mat - Exclusion 3 - Lego mod - D87]", "nM", 316],
  ["AACAAACAUGAGGAUCACCCAUGUGAGGAUAUCGGAUGUACAGCGCAAUUAGAAUUAACGAGAAGGCACACUUA [Ex1_Neo]", "nM", 22.6]
]}
